Below, each entry is listed alongside its reported pIC50.
- target.or.system: Cytochrome P450 3A4 (Homo sapiens, UniProt P08684)
- Sequence (P08684 whole entry): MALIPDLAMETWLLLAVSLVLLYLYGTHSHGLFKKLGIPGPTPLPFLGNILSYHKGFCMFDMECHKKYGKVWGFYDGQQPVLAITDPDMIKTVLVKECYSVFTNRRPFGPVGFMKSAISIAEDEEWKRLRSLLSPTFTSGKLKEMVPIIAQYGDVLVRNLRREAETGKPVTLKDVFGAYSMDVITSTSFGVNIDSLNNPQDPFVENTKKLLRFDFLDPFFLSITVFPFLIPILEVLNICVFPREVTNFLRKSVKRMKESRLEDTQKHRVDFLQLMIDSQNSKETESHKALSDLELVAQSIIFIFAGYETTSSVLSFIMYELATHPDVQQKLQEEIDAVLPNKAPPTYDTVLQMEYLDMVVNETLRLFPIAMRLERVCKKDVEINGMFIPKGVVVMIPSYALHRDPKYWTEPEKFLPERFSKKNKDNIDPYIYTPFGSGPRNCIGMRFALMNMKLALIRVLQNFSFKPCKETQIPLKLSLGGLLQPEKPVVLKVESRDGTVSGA
- method.summary: Inhibition of CYP3A4 (unknown origin) by fluorescence assay
Give only the number. pIC50 is defined as minus log10 of concentration in molar units.

# smi, measurement
data = [
    ("COc1ccc(Cc2nc3c(o2)CCc2cc(-c4ccnc(C)c4)ccc2C3=O)cc1", 6.52),
    ("Cc1cn(-c2cc3c(cc2F)Nc2nc(Cc4ccccc4)ccc2C(=O)N3)cn1", 7.52),
    ("Clc1cn(-c2ccc3c(c2)CCc2cn(Cc4ccccc4)nc2N3)cn1", 6.52),
    ("Cc1cn(-c2ccc3c(c2)CCc2sc(Cc4ccccc4)nc2N3)cn1", 6.15),
]

Ask | For `Cc1ncn(-c2ccc3c(c2)NC(=O)c2ccc(Cc4ccccc4)nc2N3)n1` , write its pIC50.
Reply | 5.70

Ask | For `Cc1cn(-c2ccc3c(c2)NC(=O)c2ccc(Cc4ccccc4)nc2N3)cn1` , write its pIC50.
Reply | 6.82

====

- target.or.system: Gamma-secretase
- method.summary: Modulation of gamma secretase in human H4 cells assessed as inhibition of amyloid beta (1 to 42) production
- Type: cell-based
- assay.context: read-out: IC50
Below, each entry is listed alongside its reported IC50.
Please respond with the number in nM and leave the unit unwritten.

Use these answered entries as a reference point.
# compound, IC50 / nM
measured = [
    ("Cc1cn(-c2ccc3c(c2)CCc2sc(Cc4ccc(F)cc4)nc2N3)cn1", 20),
    ("Cc1cc(-c2ccc3c(c2)CCc2sc(Cc4ccc(F)cc4)nc2N3)ccn1", 80),
    ("Cc1cn(-c2cc3c(cc2F)Nc2nc(Cc4ccccc4)ccc2C(=O)N3)cn1", 820),
    ("Cc1cn(-c2ccc3c(c2)NC(=O)c2ccc(C(C)c4ccccc4)nc2N3)cn1 (racemic)", 100),
    ("Cc1cn(-c2ccc3c(c2)CCc2sc(Cc4ccccc4)nc2N3)cn1", 35),
]

Ask | For `COc1ccc(Cc2nc3c(o2)CCc2cc(-c4ccnc(C)c4)ccc2C3=O)cc1` , write its IC50.
Reply | 300

Ask | For `Cc1cc(-c2ccc3c(c2)CCc2sc(Cc4ccccc4)nc2N3)ccn1` , write its IC50.
Reply | 50

Ask | For `N#Cc1ccc2c(c1)CCc1sc(Cc3ccccc3)nc1N2` , write its IC50.
Reply | 1200

Ask | For `COc1ccc(Cc2nc3c(n2C)CCc2cc(-n4cnc(C)c4)ccc2C3=O)cc1` , write its IC50.
Reply | 1100

Ask | For `Cc1cc(-c2ccc3c(c2)CCc2sc(Cc4ccc(F)c(F)c4)nc2N3)ccn1` , write its IC50.
Reply | 120

Ask | For `COc1ccc(Cc2nc3c(n2C)CCc2cc(-c4ccnc(C)c4)ccc2C3=O)cc1` , write its IC50.
Reply | 380

====

- method.summary: Plasma concentration in 3x transgenic Alzheimer's disease mouse model at 30 mg/kg, po measured after 3 hrs
- Format: ADME, organism-based
- assay.context: 3x transgenic Alzheimer's disease model
parameter: concentration at 3 h (µM)
Please respond with the number in µM and leave the unit unwritten.

Ask | For `Cc1cn(-c2ccc3c(c2)CCc2sc(Cc4ccccc4)nc2N3)cn1` , write its concentration at 3 h.
Reply | 8

Reference for the values: ChEMBL document CHEMBL3769328
